Target: Mitogen-activated protein kinase 9 (Homo sapiens) (UniProt P45984)
Sequence (P45984 whole entry, looked up): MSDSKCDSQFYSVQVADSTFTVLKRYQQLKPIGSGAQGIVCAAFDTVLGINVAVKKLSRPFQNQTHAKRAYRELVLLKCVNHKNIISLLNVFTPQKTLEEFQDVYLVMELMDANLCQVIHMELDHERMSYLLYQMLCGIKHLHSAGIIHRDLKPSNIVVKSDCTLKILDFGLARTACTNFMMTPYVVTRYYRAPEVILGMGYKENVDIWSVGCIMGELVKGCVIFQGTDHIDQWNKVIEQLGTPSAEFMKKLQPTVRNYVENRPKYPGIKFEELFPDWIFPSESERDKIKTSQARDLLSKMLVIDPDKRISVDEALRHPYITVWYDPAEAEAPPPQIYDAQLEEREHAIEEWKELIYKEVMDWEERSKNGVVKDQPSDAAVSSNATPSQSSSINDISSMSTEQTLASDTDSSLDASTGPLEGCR
Test: Inhibition of human c-Jun N-terminal kinase-2 alpha-2 at 30 uM
property-name: inhibition (%)

> print(dat)
                    compound                             tested.target  measured.value
1  Cn1cnc2c(Nc3ccccc3)ncnc21  Mitogen-activated protein kinase 9 (Homo sapiens) (UniProt P45984)               0

a = Cn1cnc2c(Sc3ccc(F)cc3)ncnc21
b = c1ccc(Cc2[nH]cnc3ncnc2-3)cc1
c = Cn1cnc2c(SCc3ccccc3)ncnc21
d = Cn1c(-c2ccc([S+](C)[O-])cc2)nc2c(Sc3ccc(F)cc3)ncnc21 (configuration not stated)
Rank entries according to their inhibition, from the largest number down. Answer by listing the labels in the requested order.
a, c, d, b
(a: 10%, c: 7%, d: 1%, b: 0%)

P = Fc1ccc(Cn2cnc3c(Sc4ccc(F)cc4)ncnc32)cc1
Q = Cn1cnc2c(SCc3ccc(F)cc3)ncnc21
Field: lower recorded inhibition (choose P or Q ) # respond with the chosen item's label
P
(P: 0%, Q: 6%)

A = COc1ncnc2ncn(Cc3ccc(F)cc3)c12
B = Cn1cnc2c(-c3ccc(F)cc3)ncnc21
Field: lower recorded inhibition (choose A or B ) # respond with the chosen item's label
A
(A: 0%, B: 3%)

P = Fc1ccc(Cn2cnc3c(Cl)ncnc32)cc1
Q = Clc1ncnc2ncn(Cc3ccccc3)c12
R = Cn1c(-c2ccccc2)nc2c(-c3ccc(F)cc3)ncnc21
Rank entries according to their inhibition, from the largest number down. Answer by listing the labels in the requested order.
R, Q, P
(R: 8%, Q: 1%, P: 0%)

P = Cn1cnc2c(/C=C/c3ccccc3)ncnc21
Q = c1ccc(Oc2ncnc3[nH]cnc23)cc1
Response body: label of entry with the larger inhibition; valid values P , Q . # respond with the chosen item's label
Q
(Q: 1%, P: 0%)

P = Fc1ccc(C[n+]2c[nH]c3ncncc32)cc1
Q = Fc1ccc(Sc2ncnc3[nH]cnc23)cc1
R = Fc1ccc(Sc2[nH]cnc3nccc2-3)cc1
S = Cn1cnc2c(-c3ccccc3)ncnc21
Rank entries according to their inhibition, from the largest number down. Answer by listing the labels in the requested order.
S, R, Q, P
(S: 11%, R: 6%, Q: 1%, P: 0%)

A = Nc1ncnc2c1ncn2Cc1ccc(F)cc1
B = Cn1cnc2c(Sc3ccccc3)ncnc21
Field: lower recorded inhibition (choose A or B ) # respond with the chosen item's label
A
(A: 0%, B: 6%)

P = Fc1ccc(Sc2ncnc3c2ncn3Cc2ccccc2)cc1
Q = Fc1ccc(Cn2cnc3ncnc(Cl)c32)cc1
R = Cn1c(-c2ccc(S(C)(=O)=O)cc2)nc2c(Sc3ccc(F)cc3)ncnc21
S = Cn1cnc2c(Nc3ccc(F)cc3)ncnc21
// smallest inhibition at index 0, largest at the end Answer by listing the labels in the requested order.
P, R, S, Q
